Measured values drawn from the supplement of paper PMC11246515 for this set.

# Assay Remarks: total protein half-life in vivo (active degradation + dilution); higher = more stable protein
# Stated Conditions: E. coli NCM3722 delta-smpB; growth: N-lim chemostat; doubling time 6 h
Readout: total protein half-life in vivo (h)
Numbers only; they are read as h.

Request: Please supply the value of reported total protein half-life in vivo for the item MIIGNIHNLQPWLPQELRQAIEHIKAHVTAETPKGKHDIEGNRLFYLISEDMTEPYEARRAEYHARYLDIQIVLKGQEGMTFSTQPAGAPDTDWLADKDIAFLPEGVDEKTVILNEGDFVVFYPGEVHKPLCAVGAPAQVRKAVVKMLMA [P0AF96]
Result: 3.75

Request: Please supply the value of reported total protein half-life in vivo for the item MKILVDENMPYARDLFSRLGEVTAVPGRPIPVAQLADADALMVRSVTKVNESLLAGKPIKFVGTATAGTDHVDEAWLKQAGIGFSAAPGCNAIAVVEYVFSSLLMLAERDGFSLYDRTVGIVGVGNVGRRLQARLEALGIKTLLCDPPRADRGDEGDFRSLDELVQRADILTFHTPLFKDGPYKTLHLADEKLIRSLKPGAILINACRGAVVDNTALLTCLNEGQKLSVVLDVWEGEPELNVELLKKVDIGTSHIAGYTLEGKARGTTQVFEAYSKFIGHEQHVALDTLLPAPEFGRITLHGPLDQPTLKRLVHLVYDVRRDDAPLRKVAGIPGEFDKLRKNYLERREWSSLYVICDDASAASLLCKLGFNAVHHPAR
Result: 4.62

Request: Please supply the value of reported total protein half-life in vivo for the item MAYSKIRQPKLSDVIEQQLEFLILEGTLRPGEKLPPERELAKQFDVSRPSLREAIQRLEAKGLLLRRQGGGTFVQSSLWQSFSDPLVELLSDHPESQYDLLETRHALEGIAAYYAALRSTDEDKERIRELHHAIELAQQSGDLDAESNAVLQYQIAVTEAAHNVVLLHLLRCMEPMLAQNVRQNFELLYSRREMLPLVSSHRTRIFEAIMAGKPEEAREASHRHLAFIEEILLDRSREESRRERSLRRLEQRKN [P0ACL9]
Result: 4.54

====

# Assay Remarks: total protein half-life in vivo (active degradation + dilution); higher = more stable protein
# Stated Conditions: E. coli NCM3722 delta-lon; growth: N-lim chemostat; doubling time 6 h
Readout: total protein half-life in vivo (h)
Numbers only; they are read as h.

Request: Please supply the value of reported total protein half-life in vivo for the item MKLKNTLLASALLSAMAFSVNAATELTPEQAAAVKPFDRVVVTGRFNAIGEAVKAVSRRADKEGAASFYVVDTSDFGNSGNWRVVADLYKADAEKAEETSNRVINGVVELPKDQAVLIEPFDTVTVQGFYRSQPEVNDAITKAAKAKGAYSFYIVRQIDANQGGNQRITAFIYKKDAKKRIVQSPDVIPADSEAGRAALAAGGEAAKKVEIPGVATTASPSSEVGRFFETQSSKGGRYTVTLPDGTKVEELNKATAAMMVPFDSIKFSGNYGNMTEVSYQVAKRAAKKGAKYYHITRQWQERGNNLTVSADLYK
Result: 5.46

Request: Please supply the value of reported total protein half-life in vivo for the item MAAKDRIQAIKQMVANDKKVTVSNLSGIFQVTEETIRRDLEKLEDEGFLTRTYGGAVLNTAMLTENIHFYKRASSFYEEKQLIARKALPFIDNKTTMAADSSSTVMELLKLLQDRSGLTLLTNSAEAIHVLAQSEIKVVSTGGELNKNTLSLQGRITKEIIRRYHVDIMVMSCKGLDINSGALDSNEAEAEIKKTMIRQATEVALLVDHSKFDRKAFVQLADFSHINYIITDKSPGAEWIAFCKDNNIQLVW
Result: 5.25

====

# Assay Remarks: total protein half-life in vivo (active degradation + dilution); higher = more stable protein
# Stated Conditions: E. coli NCM3722 delta-lon; growth: N-lim chemostat; doubling time 6 h
Readout: total protein half-life in vivo (h)
Numbers only; they are read as h.

Request: Please supply the value of reported total protein half-life in vivo for the item MIELVIVSRLLEYPDAALWQHQQEMFEAIAASKNLPKEDAHALGIFLRDLTTMDPLDAQAQYSELFDRGRATSLLLFEHVHGESRDRGQAMVDLLAQYEQHGLQLNSRELPDHLPLYLEYLAQLPQSEAVEGLKDIAPILALLSARLQQRESRYAVLFDLLLKLANTAIDSDKVAEKIADEARDDTPQALDAVWEEEQVKFFADKGCGDSAITAHQRRFAGAVAPQYLNITTGGQH [P0AF26]
Result: 2.04

Request: Please supply the value of reported total protein half-life in vivo for the item MAYFLDFDERALKEWRKLGSTVREQLKKKLVEVLESPRIEANKLRGMPDCYKIKLRSSGYRLVYQVIDEKVVVFVISVGKRERSEVYSEAVKRIL [P0C077]
Result: 3.36

Request: Please supply the value of reported total protein half-life in vivo for the item MTIHKKGQAHWEGDIKRGKGTVSTESGVLNQQPYGFNTRFEGEKGTNPEELIGAAHAACFSMALSLMLGEAGFTPTSIDTTADVSLDKVDAGFAITKIALKSEVAVPGIDASTFDGIIQKAKAGCPVSQVLKAEITLDYQLKS [P0C0L2]
Result: 5.84

Request: Please supply the value of reported total protein half-life in vivo for the item MSSYANHQALAGLTLGKSTDYRDTYDASLLQGVPRSLNRDPLGLKADNLPFHGTDIWTLYELSWLNAKGLPQVAVGHVELDYTSVNLIESKSFKLYLNSFNQTRFNNWDEVRQTLERDLSTCAQGKISVALYRLDELEGQPIGHFNGTCIDDQDITIDNYEFTTDYLENATCGEKVVEETLVSHLLKSNCLITHQPDWGSLQIQYRGRQIDREKLLRYLVSFRHHNEFHEQCVERIFNDLLRFCQPEKLSVYARYTRRGGLDINPWRSNSDFVPSTTRLVRQ
Result: 4.54

Request: Please supply the value of reported total protein half-life in vivo for the item MFKPHVTVACVVHAEGKFLVVEETINGKALWNQPAGHLEADETLVEAAARELWEETGISAQPQHFIRMHQWIAPDKTPFLRFLFAIELEQICPTQPHDSDIDCCRWVSAEEILQASNLRSPLVAESIRCYQSGQRYPLEMIGDFNWPFTKGVI [P0AEI6]
Result: 4.69

Request: Please supply the value of reported total protein half-life in vivo for the item MKQYLIAPSILSADFARLGEDTAKALAAGADVVHFDVMDNHYVPNLTIGPMVLKSLRNYGITAPIDVHLMVKPVDRIVPDFAAAGASIITFHPEASEHVDRTLQLIKENGCKAGLVFNPATPLSYLDYVMDKLDVILLMSVNPGFGGQSFIPQTLDKLREVRRRIDESGFDIRLEVDGGVKVNNIGEIAAAGADMFVAGSAIFDQPDYKKVIDEMRSELAKVSHE [P0AG07]
Result: 4.69

Request: Please supply the value of reported total protein half-life in vivo for the item MSHLKDPTTQYYTGEYPKQKQPTPGIQAKMTPVPDCGEKTYVGSGRLKDRKALVTGGDSGIGRAAAIAYAREGADVAISYLPVEEEDAQDVKKIIEECGRKAVLLPGDLSDEKFARSLVHEAHKALGGLDIMALVAGKQVAIPDIADLTSEQFQKTFAINVFALFWLTQEAIPLLPKGASIITTSSIQAYQPSPHLLDYAATKAAILNYSRGLAKQVAEKGIRVNIVAPGPIWTALQISGGQTQDKIPQFGQQTPMKRAGQPAELAPVYVYLASQESSYVTAEVHGVCGGEHLG [P0AG84]
Result: 5.57

====

# Assay Remarks: total protein half-life in vivo (active degradation + dilution); higher = more stable protein
# Stated Conditions: wild type E. coli NCM3722; growth: P-lim chemostat; doubling time 12 h
Readout: total protein half-life in vivo (h)
Numbers only; they are read as h.

Request: Please supply the value of reported total protein half-life in vivo for the item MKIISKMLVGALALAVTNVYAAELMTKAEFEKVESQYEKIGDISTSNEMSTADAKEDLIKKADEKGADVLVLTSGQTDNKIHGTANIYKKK
Result: 9.62

Request: Please supply the value of reported total protein half-life in vivo for the item MVRIYTLTLAPSLDSATITPQIYPEGKLRCTAPVFEPGGGGINVARAIAHLGGSATAIFPAGGATGEHLVSLLADENVPVATVEAKDWTRQNLHVHVEASGEQYRFVMPGAALNEDEFRQLEEQVLEIESGAILVISGSLPPGVKLEKLTQLISAAQKQGIRCIVDSSGEALSAALAIGNIELVKPNQKELSALVNRELTQPDDVRKAAQEIVNSGKAKRVVVSLGPQGALGVDSENCIQVVPPPVKSQSTVGAGDSMVGAMTLKLAENASLEEMVRFGVAAGSAATLNQGTRLCSHDDTQKIYAYLSR
Result: 11.9

Request: Please supply the value of reported total protein half-life in vivo for the item MSLTLTLTGTGGAQGVPAWGCECAACARARRSPQYRRQPCSGVVKFNDAITLIDAGLHDLADRWSPGSFQQFLLTHYHMDHVQGLFPLRWGVGDPIPVYGPPDEQGCDDLFKHPGLLDFSHTVEPFVVFDLQGLQVTPLPLNHSKLTFGYLLETAHSRVAWLSDTAGLPEKTLKFLRNNQPQVMVMDCSHPPRADAPRNHCDLNTVLALNQVIRSPRVILTHISHQFDAWLMENALPSGFEVGFDGMEIGVA
Result: 8.54
